Test system: healthy donor PBMCs
assay summary: IFNγ ELISpot assay with peptide-stimulated healthy donor PBMCs
Assay type: cell-based, human
condition context: IFNγ ELISpot, peptide-stimulated healthy donor PBMCs
experimental readout: ELISPOT result for peptides marked Tested with ELISPOT (Yes/No)

SPPLHLCQPL [compound 95] :: No
FMNSTVFHV [compound 3] :: No
RSVLEEMGL [compound 58] :: No
NMIQVLMSV [compound 49] :: No
SLINLTWTA [compound 66] :: No
KTYMEMHY [compound 57] :: Yes

Which ELISPOT result for peptides marked Tested with ELISPOT (Yes/No) is reported for this sequence? KANRYFSPNF [compound 62]
No

Quick one: ELISPOT result for peptides marked Tested with ELISPOT (Yes/No) for FLATSGIDPV [compound 44] ?
Yes
